# Tested on: U251
# test: SRB 48 h growth assay, CNS U251
# Assay type: cell-based, human
# conditions: Homo sapiens, U-251, read-out: Growth Inhibition GI50
GI50 for assorted molecules

| structureAsSmiles | GI50 [µM] |
| --- | --- |
| C#Cc1ccc(-n2c(/C=C/c3cc(OC)c(OC)c(OC)c3)nc3ncccc3c2=O)cc1 | 9.93 |
| C#Cc1ccc(-n2c(/C=C/c3ccc4ccccc4c3)nc3ncccc3c2=O)cc1 | 3.69 |
| C#Cc1ccc(-n2c(/C=C/c3ccc4ccccc4n3)nc3ncccc3c2=O)cc1 | 0.34 |
| C#Cc1ccc(-n2c(/C=C/c3ccc(O)cc3)nc3ncccc3c2=O)cc1 | 4.02 |
| C#Cc1ccc(-n2c(/C=C/c3ccc(C(F)(F)F)cc3)nc3ncccc3c2=O)cc1 | 1.67 |

====

# Tested on: NCI-H522
# test: SRB 48 h growth assay, Non-small Cell Lung NCI-H522
# Type: cell-based, human
# conditions: Homo sapiens, read-out: Log10 GI50 (converted)
GI50 for assorted compounds

| structureAsSmiles | GI50 (µM) |
| --- | --- |
| C#Cc1ccc(-n2c(/C=C/c3ccc4ccccc4c3)nc3ncccc3c2=O)cc1 | 5.13 |
| C#Cc1ccc(-n2c(/C=C/c3ccc(O)cc3)nc3ncccc3c2=O)cc1 | 2 |
| C#Cc1ccc(-n2c(/C=C/c3ccc4ccccc4n3)nc3ncccc3c2=O)cc1 | 0.269 |
| C#Cc1ccc(-n2c(/C=C/c3ccc(Cl)c(F)c3)nc3ncccc3c2=O)cc1 | 0.275 |
| C#Cc1ccc(-n2c(/C=C/c3ccc(C(F)(F)F)cc3)nc3ncccc3c2=O)cc1 | 1.66 |
| C#Cc1ccc(-n2c(/C=C/c3cc(OC)c(OC)c(OC)c3)nc3ncccc3c2=O)cc1 | 2.34 |

====

# Test system: 786-0
# test: SRB 48 h growth assay, Renal 786-0
# Format: cell-based, human
# conditions: 786-0, Renal
Log10 TGI50 for assorted compounds
outcomeMeasure: Log10 TGI50

| compound | outcomeMeasure | comparisonSymbol | assayResult |
| --- | --- | --- | --- |
| C#Cc1ccc(-n2c(/C=C/c3ccc4ccccc4n3)nc3ncccc3c2=O)cc1 [4t] | Log10 TGI50 | = | −5.88 |
| C#Cc1ccc(-n2c(/C=C/c3ccc(C(F)(F)F)cc3)nc3ncccc3c2=O)cc1 [4c] | Log10 TGI50 | = | −5.43 |
| C#Cc1ccc(-n2c(/C=C/c3cc(OC)c(OC)c(OC)c3)nc3ncccc3c2=O)cc1 [4q] | Log10 TGI50 | > | −4.00 |
| C#Cc1ccc(-n2c(/C=C/c3ccc4ccccc4c3)nc3ncccc3c2=O)cc1 [4s] | Log10 TGI50 | > | −4.00 |
| C#Cc1ccc(-n2c(/C=C/c3ccc(O)cc3)nc3ncccc3c2=O)cc1 [4b] | Log10 TGI50 | > | −4.30 |

====

# Tested on: UACC-257
# test: SRB 48 h growth assay, Melanoma UACC-257
# Format: cell-based, human
# conditions: Homo sapiens, UACC-257, Melanoma, read-out: Log10 LC50 (converted)
CC50 for assorted molecules
outcomeMeasure: CC50 (µM)

| structureAsSmiles | experimentalSystem | comparisonSymbol | assayResult |
| --- | --- | --- | --- |
| C#Cc1ccc(-n2c(/C=C/c3cc(OC)c(OC)c(OC)c3)nc3ncccc3c2=O)cc1 | UACC-257 | > | 100 |
| C#Cc1ccc(-n2c(/C=C/c3ccc4ccccc4n3)nc3ncccc3c2=O)cc1 | UACC-257 | = | 8.71 |
| C#Cc1ccc(-n2c(/C=C/c3ccc(C(F)(F)F)cc3)nc3ncccc3c2=O)cc1 | UACC-257 | = | 5.62 |
| C#Cc1ccc(-n2c(/C=C/c3ccc(O)cc3)nc3ncccc3c2=O)cc1 | UACC-257 | > | 100 |
